experiment: yeast display, Sf9 membrane polyspecificity reagent, FACS + sequencing; frameworks hold sequencing errors
endpointName: polyreactivity (PSR sort gate)

{"columns": ["sequenceText", "polyreactivity (PSR sort gate)"],
 "data": [
  ["QVQLVESGGVLVQAGRSLRLSCAASGSPFRIYAMGWYRQAPGKERELVAAISSGGRTNYADSVKGRFTISRDNAKNTVYLQMNSLKPEDTAVYYCATVGYSSSTSGNRYGRAYYYWGQGTQVTVSS", "high polyreactivity"],
  ["QVQLVESGGGLVQAGGSLRLSCAASGSIFVRNAMGWYRQAPGKEREFVAIRFSGATTYYADSVKGRFTISRDNAKNTVYLQMNSLKPEDTAVYYCAAVARTYGRTSYYWGQGTQVTVSS", "high polyreactivity"],
  ["QVHLVESGGCLVQAGGSLRLSCAASGFIFPTYAMGWYRQAPGKERELVATITTNAGGTHYADSVKGRFTISRDNAKNTVYLQMNCLKQEDTAVYYCAAKQYRPKQRKYWTRIYDYWGQGTQVTVSS", "low polyreactivity"],
  ["QVQLVETGGGLVQAGGSLRLSCAASGSTFPRYAMVWSRQAPGKESEYVAVNWSGGSTYYADSVKGRFTISRDNAKNTVYLQMNSLKPEDTAVYYCAAEYHTLSKYSGYATHDYWGQGTQVTVSS", "low polyreactivity"]
]}

### Prompt Find the recorded polyreactivity (PSR sort gate) belonging to QDQLVESGGGLVQAGGSLRLSCAASGILDRYAMGWYRQAHGKERELFAAISYIAGSTYYADSVKGRFTISRDNAKNTVYLQLNSLKPEVTAVYYCAARGFGTVNGKLYGYWGQGTQVTVSS and report it.
### Response high polyreactivity

### Prompt Find the recorded polyreactivity (PSR sort gate) belonging to QVHLVESGVGLVQSGGSIRLTCAASGSTFHVYTKGSYRQAPGKEREFVASISCSGSSTYYADSVKGRFTISRDNAKNTVYLQMNSLKPEDTAVYYCNVDRWWLGWYKFNYWGQGTQVTVSS and report it.
### Response high polyreactivity

### Prompt Find the recorded polyreactivity (PSR sort gate) belonging to QVQLVESGGGLVQAGGSLRLSCAASGYIFSYNAMGWYRQAPGKERELVAAMTASGGGTYYADSVKGRFTISRDNAKNTVYLQMNSLKPEDTAVYYCAADFNDHYYWYGQDYDYWGQGTQVTVSS and report it.
### Response low polyreactivity

* * *

assay: yeast display, Sf9 membrane polyspecificity reagent, FACS + sequencing; frameworks hold sequencing errors
endpointName: polyreactivity (PSR sort gate)

// solved cases for polyreactivity (PSR sort gate) follow
{"columns": ["sequenceText", "polyreactivity (PSR sort gate)"],
 "data": [
  ["QVQLVESVGGLVQAGGSLRLSCAASGSIFRNYAMGWYRQAPGKERELVAAITYRGGTTYYADSVKGRFTISRDNAKNTVYLQMNSLKPEDTAVYYCNTASVSRLYGEYDYWGQGTQVTVSS", "high polyreactivity"],
  ["QVQLVESGGGLVQAGGSLRLSCAASGSTFDINAMGWYRQAPGKERELVAAITWRSGRTYYADSVKGRFTISRDNAKNNVYLQMNSLKPEDTAVYYCAADDTSYYIYSYDYWGQGTQVTVSS", "low polyreactivity"],
  ["QVQLVESGGGLVQAGGSLGLSCAASGSIFSDYAMGWYRQATGKERELVAAITQSGGSTYADSVKGRFTISRDNAKNTVYLQMISLKPEDTAVYYCAADEVPGFGYPPYPWFDYWGQGTQVTVSS", "low polyreactivity"],
  ["QVQLVESGGGLVQAGGSLRLSCAASGSIFDVNAMGWYRQAPGKERELVAAISQRGTRTYYADSVKGRFTISRDNAKNTVYLQMNSLKPEDTAVYYCNRGGWRQYDSWGQGTQVTVSS", "high polyreactivity"],
  ["QVQLVESGGGLVQAGGSLRISCAASGRTFLKNTMGRYRQAPGKERELVAVITRNGDSTYADSVKGRFTISRDNAKNTVYLQMNSLKPEDTAVYYCATTYRDGVYELTTFDYWGQGTQVTVSS", "low polyreactivity"]
]}

### Prompt Find the recorded polyreactivity (PSR sort gate) belonging to QVQLVESGGGLVQAGGSLRLSCAASGFIFRRYAMGWYRQAPGKERELVAAITRSGGSTYYADSVKGRFTISRDNAMNTVYLQMNSLKPEDTAVYYCNARYARVVPRYYYWGQGTQVTVSS and report it.
### Response high polyreactivity

### Prompt Find the recorded polyreactivity (PSR sort gate) belonging to QVQLVESGGGLVQAGGSLRLSCAASGIIFHFNDMGWYRQAPGKERELVAAIDSTGSTNYADSVKGRFTISRDNAKNTVNLQMNSLKPEDTAVYYCAADWTLDPSYGYYADDYWGQGTQVTVSS and report it.
### Response low polyreactivity

### Prompt Find the recorded polyreactivity (PSR sort gate) belonging to QVQLVESGGGEVQAGGSLRLSCAASGIIFVDYVLGWYRQAPGTEMELVASIDGSGGSTNDADSVKGRFTISRDNAKNTVYLQLNRLKPEDTAVYYCTADNILYWSTLDYWGQGTHVTVSS and report it.
### Response low polyreactivity

### Prompt Find the recorded polyreactivity (PSR sort gate) belonging to QVQLQESGGGLVLAGGSLRLSCAASGSITAQAYMGWDRQAPGKEREHVAGINYGDNTNYADSVKGRFTISRDNEHRVSADEQPETGRYRGVLLRGFLEIFYYYIFWGQGTQVTVSS and report it.
### Response high polyreactivity

### Prompt Find the recorded polyreactivity (PSR sort gate) belonging to QVQLVESGGGLVQAGGSLRFSCAASGSTFPSYAMGWYRQAPGKERELVAAITNGGSTTYADSVKGRFTISRDNAKITDYLQMNSLKPEDTAVYYCAARYYYYYYIRRDYWGQGTQVTVSS and report it.
### Response low polyreactivity

### Prompt Find the recorded polyreactivity (PSR sort gate) belonging to KVQLVESGGGLVQAGGSLRISCAASGFIFVDYAMGWYRQAPGKERELVAAISSSGSTTYADSVKGRFTISRDNAKNIVYLQMNSLKPEDTAVYYCNADAEVVPGEYDYWGQGTQVTVSS and report it.
### Response low polyreactivity
